pEC50 overview
Biological target: P2Y14-K77A (Homo sapiens, UniProt Q15391, K77A)
Construct: HA (N)
Sequence (Q15391 whole entry K77A): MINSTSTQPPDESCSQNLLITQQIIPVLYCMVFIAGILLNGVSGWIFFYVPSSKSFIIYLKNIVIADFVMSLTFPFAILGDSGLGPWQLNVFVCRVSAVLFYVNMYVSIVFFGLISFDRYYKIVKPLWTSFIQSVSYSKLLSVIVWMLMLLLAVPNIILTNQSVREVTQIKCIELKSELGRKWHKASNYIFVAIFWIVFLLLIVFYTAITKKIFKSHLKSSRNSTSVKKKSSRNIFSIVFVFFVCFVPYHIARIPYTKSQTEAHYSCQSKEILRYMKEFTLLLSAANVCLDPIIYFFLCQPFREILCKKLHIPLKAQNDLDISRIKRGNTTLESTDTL
Test: Intracellular Ca2+ mobilization, HEK293 expressing P2Y14 K77A mutant
Conditions: calcium mobilization, mean ± SEM
pEC50: −log10 of the molar value.

{"compound": "CC(=O)N[C@H]1[C@@H](OP(=O)(O)OP(=O)(O)OC[C@H]2O[C@@H](n3ccc(=O)[nH]c3=O)[C@H](O)[C@@H]2O)O[C@H](CO)[C@@H](O)[C@@H]1O [UDP-GlcNAc, UDP-N-acetylglucosamine]", "test-target": "P2Y14-K77A (Homo sapiens, UniProt Q15391, K77A)", "pEC50": "< 5.52"}
{"compound": "O=C(O)C1OC(OP(=O)(O)OP(=O)(O)OCC2OC(n3ccc(=O)[nH]c3=O)C(O)C2O)C(O)C(O)C1O (centres unmarked) [UDP-GlcA, UDP-glucuronic acid]", "test-target": "P2Y14-K77A (Homo sapiens, UniProt Q15391, K77A)", "pEC50": "< 5.52"}
